Provide the recorded 5-HT2A/5-HT2c Selectivity Factor ΔLog(Emax/EC50) for the entries that follow.
Tested on: 5-HT2A
test: Ca2+ flux assay, 5-HT2A
Assay type: cell-based, human
runParameters: Gq/11 Ca2+ mobilization; higher number = skewed towards 5-HT2A
Numbers only.

INSERT INTO measurements (compound, experimentalresult) VALUES
  ('COc1cc([N+](=O)[O-])c(OC)cc1CCNCc1cccc(C)c1 [25N-NB-3-Me (22)]', 29.1);

Let us examine a further case.
Lab note: COc1cc([N+](=O)[O-])c(OC)cc1CCNCc1ccccc1C [25N-NBMe (6)] gave 5-HT2A/5-HT2c Selectivity Factor ΔLog(Emax/EC50) of 26.7

* * *

assaySystem: 5-HT2A (Homo sapiens)
test: [3H]-ketanserin displacement, 5-HT2A membranes
Assay type: binding
Design: ES-313-M400UA (membranes); host or cells: CHO-K1
experimentalEndpoint: pKi
Answers are plain numbers, as −log10 of the molar value.

INSERT INTO measurements (compound, assaysystem, experimentalendpoint, experimentalresult) VALUES
  ('COc1cc([N+](=O)[O-])c(OC)cc1CCNCc1cccc2ccccc12 [25N-N-1-Nap (16)]', '5-HT2A (Homo sapiens)', 'pKi', 8.37);

Let us examine a further case.
Lab note: COc1cc([N+](=O)[O-])c(OC)cc1CCNCc1ccccc1OC [25N-NBOMe (4)] gave pKi of 8.85

* * *

Provide the recorded EC50 for the entries that follow.
assaySystem: UniProtKB P28335
Sequence (P28335 33-458): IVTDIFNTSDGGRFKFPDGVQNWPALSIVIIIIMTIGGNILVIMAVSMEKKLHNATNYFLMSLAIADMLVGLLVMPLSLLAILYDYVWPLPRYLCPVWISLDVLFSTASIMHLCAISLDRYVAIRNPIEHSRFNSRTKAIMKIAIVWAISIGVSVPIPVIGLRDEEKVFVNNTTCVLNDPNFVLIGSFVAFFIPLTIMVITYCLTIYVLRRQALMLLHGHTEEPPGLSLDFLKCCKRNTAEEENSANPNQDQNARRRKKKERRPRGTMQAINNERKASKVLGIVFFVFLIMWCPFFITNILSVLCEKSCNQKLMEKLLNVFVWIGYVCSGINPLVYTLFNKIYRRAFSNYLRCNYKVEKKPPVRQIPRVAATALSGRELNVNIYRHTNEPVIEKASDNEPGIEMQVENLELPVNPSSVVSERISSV
test: BRET Gq dissociation, 5-HT2C
Type: cell-based
Parameters: expressed in transfected cells; host or cells: HEK293T, transient
Answers are plain numbers, in nM.

Respectfully, I request EC50 for each entry included below.
1. COc1cc([N+](=O)[O-])c(OC)cc1CCNCc1ccccc1Cl [25N-NBCl (8)]
2. COc1cc([N+](=O)[O-])c(OC)cc1CCNCc1ccccc1 [25N-NB (2)]

A.
[21.4, 8.51]

Respectfully, I request EC50 for each entry included below.
1. COc1cc(Br)c(CCNCc2cccc(C)c2O)cc1OC
2. COc1cc([N+](=O)[O-])c(OC)cc1CCNCc1ccccc1I [25N-NBI (10)]
3. COc1cc([N+](=O)[O-])c(OC)cc1CCNCc1cccc2ccccc12 [25N-N-1-Nap (16)]
4. COc1cc([N+](=O)[O-])c(OC)cc1CCNCc1ccccc1F [25N-NBF (7)]

A.
1. 20.9
2. 87.1
3. 18.6
4. 14.1

* * *

assaySystem: 5-HT2A (Homo sapiens, UniProt P28223)
Sequence (P28223 whole entry): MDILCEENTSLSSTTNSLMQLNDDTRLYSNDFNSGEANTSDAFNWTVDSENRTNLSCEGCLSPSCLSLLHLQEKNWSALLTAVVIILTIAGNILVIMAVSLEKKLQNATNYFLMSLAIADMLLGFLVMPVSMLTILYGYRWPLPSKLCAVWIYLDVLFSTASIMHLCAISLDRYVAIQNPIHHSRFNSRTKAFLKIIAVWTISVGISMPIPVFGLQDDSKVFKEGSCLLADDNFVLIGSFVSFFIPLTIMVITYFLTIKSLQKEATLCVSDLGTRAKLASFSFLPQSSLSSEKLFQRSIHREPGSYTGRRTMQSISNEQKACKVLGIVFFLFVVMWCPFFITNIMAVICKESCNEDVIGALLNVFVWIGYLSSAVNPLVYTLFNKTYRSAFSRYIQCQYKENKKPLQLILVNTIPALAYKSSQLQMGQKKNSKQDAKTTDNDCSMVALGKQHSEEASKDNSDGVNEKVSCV
test: [3H]-ketanserin displacement, 5-HT2A membranes
Assay type: binding
Set-up: ES-313-M400UA (membranes); host or cells: CHO-K1
runParameters: [3H]-ketanserin displacement (n = 2); read-out: 5-HT2A pKi Mean ± SEM (converted)
Provide the recorded Ki for the entries that follow.
One number for each entry, in nM.

Please review the following examples before continuing.
INSERT INTO measurements (compound, experimentalresult) VALUES
  ('COc1cc(OC)c(OC)cc1CCNCc1ccc(-c2ccccc2)s1 [(76)]', 447),
  ('COc1cc(OC)c(OC)cc1CCNCc1cccc2c1oc1ccccc12 [(74)]', 67.6);

Lab note: COc1cc(OC)c(OC)cc1CCNCc1cccc(I)c1F [(72)] gave Ki of 49

* * *

Provide the recorded 5-HT2A β-arrestin Emax (% 5-HT) for the entries that follow.
assaySystem: 5-HT2A (Homo sapiens, UniProt P28223)
test: cell-based
Parameters: expressed in transfected cells; host or cells: HEK293T, transient
runParameters: BRET, mean ± SEM
One number for each entry, in % 5-HT.

Please review the following examples before continuing.
INSERT INTO assay_data (compound, assaysystem, experimentalresult) VALUES
  ('CN(C)CCc1c[nH]c2ccccc12 [DMT, reference compound]', '5-HT2A (Homo sapiens, UniProt P28223)', 64),
  ('CCN(CC)C(=O)[C@@H]1C=C2c3cccc4[nH]cc(c34)C[C@H]2N(C)C1 [LSD, reference compound]', '5-HT2A (Homo sapiens, UniProt P28223)', 85),
  ('COc1cc([N+](=O)[O-])c(OC)cc1CCNCc1cccc(C)c1O [25N-NB-2-OH-3-Me (18)]', '5-HT2A (Homo sapiens, UniProt P28223)', 130.7),
  ('COc1cc(CCN)c(OC)cc1Br [Compound 2C-B, reference compound]', '5-HT2A (Homo sapiens, UniProt P28223)', 84.0);

Let us examine a further case.
Lab note: COc1cc(CCN)c(OC)cc1I [Compound 2C-I, reference compound] gave 5-HT2A β-arrestin Emax (% 5-HT) of 74.3

* * *

assaySystem: 5-HT2C (Homo sapiens, UniProt P28335)
test: BRET Gq dissociation, 5-HT2C
Assay type: cell-based
Set-up: expressed in transfected cells; host or cells: HEK293T, transient
Method: After at least 18-24 hours, transfected cells were plated in poly-lysine coated 96-well white clear bottom cell culture plates in DMEM containing 1% dialyzed FBS at a density of 25-40,000 cells in 200 μL per well and incubated overnight. […] Fifteen minutes before reading, 10 μL of the RLuc substrate, either coelenterazine h for β-Arrestin recruitment BRET^1 or coelenterazine 400a for Gq dissociation BRET^2 (Prolume/Nanolight, 5 μM final concentration) was addedper well. […]
Label Met when EC50 is strictly below 0.01 µM; at or above that, label Not met.

// below: answered molecules
INSERT INTO measurements (molecule, grouplabel) VALUES
  ('COc1cc([N+](=O)[O-])c(OC)cc1CCNCc1ccccc1-c1ccccc1 [25N-NBPh (17)]', 'Not met'),
  ('COc1cc([N+](=O)[O-])c(OC)cc1CCNCc1ccccc1OC [25N-NBOMe (4)]', 'Met'),
  ('COc1cc([N+](=O)[O-])c(OC)cc1CCNCc1cccc(C)c1O [25N-NB-2-OH-3-Me (18)]', 'Met'),
  ('COc1cc([N+](=O)[O-])c(OC)cc1CCNCc1ccccc1C [25N-NBMe (6)]', 'Not met');

Q. Does the reported EC50 of the following molecule sit strictly below 0.01 µM? COc1cc(OC)c(OC)cc1CCNCc1cccc(I)c1 [(53)]
A. Not met

Q. Does the reported EC50 of the following molecule sit strictly below 0.01 µM? COc1cc([N+](=O)[O-])c(OC)cc1CCN [2C-N (1), reference compound]
A. Not met

* * *

assaySystem: 5-HT2B (Homo sapiens, UniProt P41595)
Sequence (P41595 whole entry): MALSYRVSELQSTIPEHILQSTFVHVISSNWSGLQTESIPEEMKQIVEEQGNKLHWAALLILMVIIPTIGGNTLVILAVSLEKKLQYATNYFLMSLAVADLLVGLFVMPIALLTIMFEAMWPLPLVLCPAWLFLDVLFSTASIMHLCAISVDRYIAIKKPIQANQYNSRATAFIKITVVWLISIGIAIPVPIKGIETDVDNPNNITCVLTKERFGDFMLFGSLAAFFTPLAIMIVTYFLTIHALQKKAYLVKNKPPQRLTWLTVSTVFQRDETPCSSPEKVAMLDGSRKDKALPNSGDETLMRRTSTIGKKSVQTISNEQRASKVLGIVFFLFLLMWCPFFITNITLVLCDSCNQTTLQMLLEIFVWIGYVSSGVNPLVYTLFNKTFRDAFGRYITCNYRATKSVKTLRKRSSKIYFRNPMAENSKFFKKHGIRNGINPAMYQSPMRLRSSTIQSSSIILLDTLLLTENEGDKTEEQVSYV
test: BRET Gq dissociation, 5-HT2B
Assay type: cell-based
Set-up: expressed in transfected cells; host or cells: HEK293T, transient
pEC50: −log10 of the molar value.
Note that class boundaries on pEC50 are lower bin: < 7; middle bin: ≥ 7 and < 8; upper bin: ≥ 8

// below: answered molecules
INSERT INTO results (molecule, assaysystem, grouplabel) VALUES
  ('COc1cc([N+](=O)[O-])c(OC)cc1CCNCc1ccccc1Br [25N-NBBr (9)]', '5-HT2B (Homo sapiens, UniProt P41595)', 'lower bin'),
  ('COc1cc([N+](=O)[O-])c(OC)cc1CCNCc1ccccc1OC [25N-NBOMe (4)]', '5-HT2B (Homo sapiens, UniProt P41595)', 'upper bin'),
  ('COc1cc([N+](=O)[O-])c(OC)cc1CCNCc1ccccc1Cl [25N-NBCl (8)]', '5-HT2B (Homo sapiens, UniProt P41595)', 'lower bin');

Q. State the band of COc1cc(OC)c(OC)cc1CCNCc1cccc(I)c1
A. upper bin

Q. State the band of COc1cc([N+](=O)[O-])c(OC)cc1CCNCc1ccccc1-c1ccccc1 [25N-NBPh (17)]
A. lower bin

Q. State the band of COc1cc([N+](=O)[O-])c(OC)cc1CCNCc1ccccc1I [25N-NBI (10)]
A. middle bin

Q. State the band of COc1cc([N+](=O)[O-])c(OC)cc1CCNCc1ccccc1 [25N-NB (2)]
A. middle bin

meta.source: patent US20240254087A1
